# TARGET_OR_SYSTEM: hOGA in HEK293 cells inducible for P301L mutant human Tau (isoform 2N4R) (Homo sapiens)
# Construct: endogenous in cells; host or cells: HEK293 cells inducible for P301L mutant human Tau (isoform 2N4R)
# EXPERIMENT: OGA cellular assay (ICC detection of O-GlcNAcylated proteins)
# Type: cell-based
# MEASUREMENT_SETUP: 6 hours incubation, maximum = Thiamet G at 200 uM
MEASURED_ENDPOINT: Emax (%)

Worked cases, Emax given:
Enquiry: Please report the recorded Emax for Cc1cc(C[C@H]2CCCN(C(C)c3cc4ncccc4cn3)C2)cc(C)n1 (mixture of isomers) .
Return: 41.1

Enquiry: Please report the recorded Emax for Cc1cc(C[C@H]2CCCN(Cc3ccc4cccnc4n3)C2)cc(C)n1 .
Return: 29.8

1 = Cc1cc(C[C@H]2CCCN([C@H](C)c3ccc4ccc(C)nc4c3)C2)cc(C)n1 (single isomer, unassigned)
2 = Cc1cc(C[C@H]2CCCN([C@@H](C)c3cnc4cccnc4c3)C2)cc(C)n1 (single isomer, unassigned)
Enquiry: When the recorded Emax values are compared, which is smaller: that of 1 or that of 2 ? // respond with label for picked entry
Return: 1

----------
# TARGET_OR_SYSTEM: hOGA in HEK293 cells inducible for P301L mutant human Tau (isoform 2N4R) (Homo sapiens)
# Construct: endogenous in cells; host or cells: HEK293 cells inducible for P301L mutant human Tau (isoform 2N4R)
# Sequence (O60502 1-916): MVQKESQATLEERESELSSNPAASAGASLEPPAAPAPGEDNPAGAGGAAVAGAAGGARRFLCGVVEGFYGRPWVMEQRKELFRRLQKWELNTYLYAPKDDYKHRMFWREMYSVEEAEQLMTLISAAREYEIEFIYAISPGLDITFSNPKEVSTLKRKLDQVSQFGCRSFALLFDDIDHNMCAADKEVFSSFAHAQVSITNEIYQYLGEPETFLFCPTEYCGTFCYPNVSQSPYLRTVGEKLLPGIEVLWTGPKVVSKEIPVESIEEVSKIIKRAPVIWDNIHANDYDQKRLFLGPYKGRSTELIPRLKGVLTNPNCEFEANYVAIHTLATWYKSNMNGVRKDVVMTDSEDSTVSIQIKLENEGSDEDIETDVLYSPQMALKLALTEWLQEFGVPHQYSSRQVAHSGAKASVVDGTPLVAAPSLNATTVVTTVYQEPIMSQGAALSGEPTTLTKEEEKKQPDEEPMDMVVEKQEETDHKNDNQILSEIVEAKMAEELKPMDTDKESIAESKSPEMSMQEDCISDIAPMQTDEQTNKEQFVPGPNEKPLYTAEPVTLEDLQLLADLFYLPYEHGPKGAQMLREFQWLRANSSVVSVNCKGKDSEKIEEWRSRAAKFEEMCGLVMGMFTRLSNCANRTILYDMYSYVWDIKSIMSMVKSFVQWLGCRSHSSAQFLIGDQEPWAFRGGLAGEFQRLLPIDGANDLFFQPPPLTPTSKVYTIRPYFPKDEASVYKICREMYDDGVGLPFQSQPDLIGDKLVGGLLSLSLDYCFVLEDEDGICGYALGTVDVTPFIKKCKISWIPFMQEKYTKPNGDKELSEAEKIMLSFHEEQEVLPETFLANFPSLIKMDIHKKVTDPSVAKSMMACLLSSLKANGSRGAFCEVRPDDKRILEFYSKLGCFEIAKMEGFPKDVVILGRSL
# EXPERIMENT: OGA cellular assay (ICC detection of O-GlcNAcylated proteins)
# Assay type: cell-based
# MEASUREMENT_SETUP: 6 hours incubation, maximum = Thiamet G at 200 uM
MEASURED_ENDPOINT: Emax (%)

Enquiry: Please report the recorded Emax for Cc1cc(C[C@H]2CCCN(C(C)c3ccc4cccnc4n3)C2)cc(C)n1 (mixture of isomers) [Compound 7] .
Return: 71.1

P = Cc1cc(C[C@H]2CCCN(C(C)c3ccc4nc(O)cnc4c3)C2)cc(C)n1 (mixture of isomers) [Compound 10]
Q = Cc1cc(C[C@H]2CCCN([C@H](C)c3cnc4cccnc4c3)C2)cc(C)n1 (single isomer, unassigned) [Compound 5]
R = Cc1cc(C[C@H]2CCCN(Cc3ccc4cccnc4c3)C2)cc(C)n1 [Compound 1]
Enquiry: // ranking: key=Emax, reverse=True Form entry: ranked labels (order as requested).
Return: Q, R, P
(Q: 86.4%, R: 33%, P: 11.2%)

----------
# TARGET_OR_SYSTEM: hOGA in HEK293 cells inducible for P301L mutant human Tau (isoform 2N4R) (Homo sapiens, UniProt O60502)
# Construct: endogenous in cells; host or cells: HEK293 cells inducible for P301L mutant human Tau (isoform 2N4R)
# EXPERIMENT: OGA cellular assay (ICC detection of O-GlcNAcylated proteins)
# Assay type: cell-based
# MEASUREMENT_SETUP: 6 hours incubation, O-GlcNAcylation intensity readout at 488 nm, read-out: Cellular hOGA, pEC50 (converted)
MEASURED_ENDPOINT: EC50

Worked cases, EC50 given:
Enquiry: Please report the recorded EC50 for Cc1cc(C[C@H]2CCCN(Cc3ccc4cccnc4n3)C2)cc(C)n1 .
Return: > 1 µM

Enquiry: Please report the recorded EC50 for Cc1cc(C[C@H]2CCCN([C@H](C)c3ccc4ccc(C)nc4c3)C2)cc(C)n1 (single isomer, unassigned) .
Return: > 1 µM

Enquiry: Please report the recorded EC50 for Cc1cc(C[C@H]2CCCN(Cc3ccc4cccnc4c3)C2)cc(C)n1 .
Return: > 1 µM

Turning now to a further record.
Enquiry: Please report the recorded EC50 for Cc1cc(C[C@H]2CCCN(C(C)c3ccc4nc(O)cnc4c3)C2)cc(C)n1 (mixture of isomers) .
Return: > 1 µM
